Source of measurements: patent US9359383B2

Parameter: Remaining amount (wt % at 400 ° C.). Scope: all listed entries.
# measurement_description: Thermal stability by TGA (Test Example 3)
# Type: physicochemical
# measurement_setup: dry argon 100 ml/min, heating rate 10° C./min, sample 7-12 mg
readout_kind: Remaining amount (wt % at 400 ° C.) (wt %)

1) COCC(C)(C)C1=[O+][Sr-4]234([O+]=C(C(C)(C)COC)C=C(C(C)C)[N]2C(C)C[N+]3(C)C)[N](C(C(C)C)=C1)C(C)C[N+]4(C)C (stereo not shown) :: 0.61
2) COCC(C)(C)C1=CC(C(C)C)=[N+](CCN(C)C)[Sr-2]2([O]1)[O]C(C(C)(C)COC)=CC(C(C)C)=[N+]2CCN(C)C :: 10.2
3) COCC(C)[N+]1=C(C(C)C)C=C(C(C)(C)COC)[O][Sr-2]12[O]C(C(C)(C)COC)=CC(C(C)C)=[N+]2C(C)COC (stereo not shown) :: 3.7
4) CCC(C)C(=CC(=O)C(C)(C)COC)[N]([Sr][N](C(=CC(=O)C(C)(C)COC)C(C)CC)C(C)CN(C)C)C(C)CN(C)C (stereo not shown) :: 0.87
5) CCOCC(C)(C)C(=O)C=C(C(C)C)[N]([Sr][N](C(=CC(=O)C(C)(C)COCC)C(C)C)C(C)CN(C)C)C(C)CN(C)C (stereo not shown) :: 1.40
6) COCCCC1=[N+](CCCN(C)C)[Sr-2]2([O]C(C(C)(C)C)=C1)[O]C(C(C)(C)C)=CC(CCCOC)=[N+]2CCCN(C)C :: 26.2
7) COCCC(C)(C)C1=CC(C(C)C)=[N+](C(C)CN(C)C)[Sr-2]2([O]1)[O]C(C(C)(C)CCOC)=CC(C(C)C)=[N+]2C(C)CN(C)C (stereo not shown) :: 3.97

====

# measurement_description: Thermal stability by DSC (Test Example 3)
# Assay type: physicochemical
# measurement_setup: closed metal container, dry argon, heating rate 10° C./min, sample 1-4 mg
readout_kind: Decomposition peak top temperature (° C.) (°C)

1) COCCC(C)(C)C1=CC(C(C)C)=[N+](C(C)CN(C)C)[Sr-2]2([O]1)[O]C(C(C)(C)CCOC)=CC(C(C)C)=[N+]2C(C)CN(C)C (stereo not shown) [Comparative Example 8] :: 368.2
2) CCOCC(C)(C)C(=O)C=C(C(C)C)[N]([Sr][N](C(=CC(=O)C(C)(C)COCC)C(C)C)C(C)CN(C)C)C(C)CN(C)C (stereo not shown) [Example 2] :: 360.7
3) COCCCC1=[N+](CCCN(C)C)[Sr-2]2([O]C(C(C)(C)C)=C1)[O]C(C(C)(C)C)=CC(CCCOC)=[N+]2CCCN(C)C [Comparative Example 5] :: 336.8
4) COCC(C)[N+]1=C(C(C)C)C=C(C(C)(C)COC)[O][Sr-2]12[O]C(C(C)(C)COC)=CC(C(C)C)=[N+]2C(C)COC (stereo not shown) [Comparative Example 6] :: 363.0
5) COCC(C)(C)C1=CC(C(C)C)=[N+](CCN(C)C)[Sr-2]2([O]1)[O]C(C(C)(C)COC)=CC(C(C)C)=[N+]2CCN(C)C [Comparative Example 7] :: 337.5
6) COCC(C)(C)C1=[O+][Sr-4]234([O+]=C(C(C)(C)COC)C=C(C(C)C)[N]2C(C)C[N+]3(C)C)[N](C(C(C)C)=C1)C(C)C[N+]4(C)C (stereo not shown) [Example 1] :: 382.4
7) CCC(C)C(=CC(=O)C(C)(C)COC)[N]([Sr][N](C(=CC(=O)C(C)(C)COC)C(C)CC)C(C)CN(C)C)C(C)CN(C)C (stereo not shown) [Example 3] :: 393.2
